- Target Or Test System: Kappa-type opioid receptor (Homo sapiens)
- Sequence (P41145 whole entry): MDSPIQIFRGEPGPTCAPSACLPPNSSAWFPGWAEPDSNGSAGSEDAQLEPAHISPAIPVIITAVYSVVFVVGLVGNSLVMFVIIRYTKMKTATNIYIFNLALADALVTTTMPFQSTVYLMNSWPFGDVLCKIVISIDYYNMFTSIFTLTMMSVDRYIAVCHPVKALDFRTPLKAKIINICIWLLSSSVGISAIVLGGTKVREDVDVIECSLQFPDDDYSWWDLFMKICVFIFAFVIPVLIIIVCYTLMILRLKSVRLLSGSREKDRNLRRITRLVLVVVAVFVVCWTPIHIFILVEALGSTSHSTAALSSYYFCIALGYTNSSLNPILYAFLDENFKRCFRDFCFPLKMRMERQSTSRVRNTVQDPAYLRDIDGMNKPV
Measurement Name: Ki (nM)
Give the value in nM but do not write nM after it.

Request: Param request: Ki | system Kappa-type opioid receptor (Homo sapiens) | item C/C=C1/CN2CC[C@@]34C(=Nc5ccccc53)C(C(=O)OC)[C@H]1C[C@H]24 (stereo partly specified)
Response: 89
